# System: HACAT
# protocol: qHTS assay to identify novel small-molecules to repurpose for Merkel cell carcinoma treatment (AID 1296009); further: nearly all actives have a fitted effect of over 60% in size
# condition-context: MCC and control cell lines, CellTiter-Glo viability, 72 h; at 44.8 µM (top of the series) unless noted
Results filed as inconclusive are left out. Activity calls are given as the source filed them. The call rests on the fitted dose curve; in most records, active means well fitted inhibition curve with a large enough effect; inconclusive means small, poorly fitted or top-dose-only effect; inactive means flat fitted curve, though single readings scatter.
metric: outcome

| compound | reported-value |
| --- | --- |
| C/C=C(\C)C(=O)OCC1OC(OCC2OC(OC3(CO)OC(CO)C(O)C3O)C(O)C(O)C2O)C(O)C(O)C1O (stereo not drawn) | inactive [at 17.4 µM] |
| C=C(C)[C@H]1CC[C@]2(C(=O)O)CC[C@]3(C)C(CCC4[C@@]5(C)CCC(=O)C(C)(C)C5CC[C@]43C)C12 (stereo partly drawn) | inactive [at 17.4 µM] |

----------
# Tested on: Es-2
# protocol: Primary qHTS to identify gynecologic anti-cancer compounds using libraries of approved drugs and bioactive compounds (AID 1345084); further: nearly all actives have a fitted effect of over 55% in size
# condition-context: Gynecologic cancer cell panel viability, ATPlite luminescence, 48 h; series mostly up to 57.5 µM
Inconclusive results are not listed. The source made the active and inactive calls. Calls come from the whole dose curve; as a rule, active = well fitted cell-killing curve with a large enough effect; inconclusive = small, poorly fitted or top-dose-only effect, or effect the other way; inactive = flat fitted curve, though single readings scatter.

| molecule | activity change, negative = cytotoxicity |
| --- | --- |
| COc1ccc(/C=C/C(N)=O)cc1OC | inactive |
| CN1CCN(c2nc(-c3ccc(C(=O)NC4(C(=O)NCC#N)CCCCC4)cc3)cs2)CC1 | inactive |
| C/C(=C\CC[C@H](CO)[C@@H]1CC[C@]2(C)C3=C(CC[C@@]12C)[C@@]1(C)CCC(=O)C(C)(C)C1CC3)C(=O)O (stereo partly drawn) | inactive |

----------
# Test system: HACAT
# protocol: qHTS assay to identify novel small-molecules to repurpose for Merkel cell carcinoma treatment (AID 1296009); further: nearly all actives have a fitted effect of over 60% in size
# condition-context: MCC and control cell lines, CellTiter-Glo viability, 72 h; at 44.8 µM (top of the series) unless noted
Records with an inconclusive call do not appear. Activity calls are given as the source filed them. Calls come from the whole dose curve; as a rule, active = well fitted inhibition curve with a large enough effect; inconclusive = small, poorly fitted or top-dose-only effect; inactive = flat fitted curve, though single readings scatter.

| compound | outcome |
| --- | --- |
| C=CC1(C)CC2CCC3C(C)(C(=O)O)CCCC3(C)C2=CC1=O (centres undefined) | inactive |
| CC(=O)N[C@H](Cc1c[nH]c2ccccc12)C(=O)OCc1cc(C(F)(F)F)cc(C(F)(F)F)c1 | inactive |
| CC(O)CCc1ccc(O[C@@H]2O[C@H](CO)[C@@H](O)[C@H](O)[C@H]2O)cc1 (some centres undefined) | inactive |

----------
# protocol: Primary fluorescence-based thiol-reactive (MSTI) qHTS assay for identification of artifact compounds. (AID 1845221); further: nearly all actives have a fitted effect of over 65% in size
# condition-context: MSTI thiol-reactivity probe, 1 h; series mostly up to 53.8 µM
Results filed as inconclusive are left out. Calls of active or inactive are those of the source. Calls come from the whole dose curve; as a rule, active = well fitted inhibition curve with a large enough effect; inconclusive = small, poorly fitted or top-dose-only effect; inactive = no such curve, though single readings can be large or run the other way.
Classes used: y (active), n (inactive)

| molecule | label-class |
| --- | --- |
| C/C=C/C=C/C=C/C(=O)O[C@@H]1C=C(CO)[C@](O)(CO)[C@@]2(C)CCCC(C)(C)[C@H]12 | n |
| CC1CC2(O)OC(=O)C3=C2C(CCC3)[C@@]12C[C@@H](c1ccoc1)OC2=O (stereo partly specified) | y |
| CCOC(=O)COc1ccc2c(c1)C[C@@H](NC[C@H](O)c1cccc(Cl)c1)CC2 | n |
| C=CC(C)(O)C1CC2C3(C)CCCC(C)(C)C3C(O)C(O)C2(C)O1 (stereo unspecified) | n |
| COc1cc(/C=C/C(=O)O)ccc1O[C@@H]1O[C@H](CO)[C@@H](O)[C@H](O)[C@H]1O[C@@H]1OC[C@](O)(CO)[C@H]1O | n |
| C[C@@]1(O)[C@H](O)[C@@H](CO)O[C@H]1n1cnc2c(=O)[nH]c(N)nc21 | n |
| C=C1C[C@]23C[C@H]1CC[C@H]2[C@]1(C)CC[C@H](O)[C@@](C)(C(=O)O)[C@H]1[C@@H]3C(=O)O | n |
| COc1cnc(-n2cnc(C)n2)c2[nH]cc(C(=O)C(=O)N3CCN(C(=O)c4ccccc4)CC3)c12 | n |
| O=C(/C=C/c1ccc(O)c(O)c1)OC[C@H]1O[C@@H](OC2CCCCC2O)[C@H](O)[C@@H](O)[C@@H]1O (stereo partly specified) | y |
| CC1=C(CC/C(C)=C/C(=O)O)[C@@]2(C)CCCC(C)(C)C2CC1=O (stereo partly specified) | n |
| C/C=C1/[C@H](O[C@@H]2O[C@H](CO)[C@@H](O)[C@H](O)[C@H]2O)OC=C2C(=O)O[C@@H]3C[C@@H](C(C)CO)[C@H](COC(=O)C[C@H]21)[C@H]3C (stereo partly specified) | n |
| Cn1cc(CCn2cnc(-c3cnn(C)c3)c2-c2ccc(C#N)cc2)cn1 | n |
| CC(=O)NC(Cc1c[nH]c2ccccc(=O)c12)C(=O)O (stereo unspecified) | y |
| COC(=O)C(Cc1ccccc1)NC(=O)c1ccccc1 (stereo unspecified) | n |
| CC(O)C(O)/C=C/C=C/C(=O)O[C@@H]1C=C(C(=O)O)[C@](O)(CO)[C@@]2(C)CCCC(C)(C)[C@H]12 (stereo partly specified) | n |
| CC1=C(C)C(=O)OC(C(C)C2C(O)CC3C4C5OC5C5(O)CC(OC6OC(CO)C(OC7OC(C)C(O)C(O)C7O)C(O)C6O)CC(O)C5(C)C4CCC32C)C1 (stereo unspecified) | n |
